src = patent US6653478B2

# assayed-system: UniProt:P30518
# Sequence (P30518 whole entry): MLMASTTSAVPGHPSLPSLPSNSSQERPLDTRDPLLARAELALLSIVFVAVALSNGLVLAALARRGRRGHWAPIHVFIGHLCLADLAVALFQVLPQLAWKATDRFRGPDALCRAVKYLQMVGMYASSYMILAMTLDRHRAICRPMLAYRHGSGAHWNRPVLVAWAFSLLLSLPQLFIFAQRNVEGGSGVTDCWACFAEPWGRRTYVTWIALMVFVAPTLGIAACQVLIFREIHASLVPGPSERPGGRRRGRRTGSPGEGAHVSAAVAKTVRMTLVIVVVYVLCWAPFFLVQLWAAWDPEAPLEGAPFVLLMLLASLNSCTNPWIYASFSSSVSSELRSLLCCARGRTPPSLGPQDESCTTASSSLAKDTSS
# assay-info: V2 binding assay (3H-AVP displacement, HEK-293 membranes)
# Parameters: expressed in transfected cells; host or cells: HEK-293 (membranes)
# test-parameters: 1.0 μM compound; read-out: V2@1.0, % Inh
// inhibition at 1 µM lookup, one value per entry
The response must be a number in % with no trailing unit.

# compound, assayed-system, reading-unit, quantitative-readout
data = [
    ("CCc1ccc(CCNC(=S)N2CCC(n3c(=O)[nH]c4ccccc43)CC2)cc1 [Compound 21]", "UniProt:P30518", "%", 19),
    ("CC(CN1CCCC1)Cn1c(=O)n(C2CCN(C(=S)NC(c3ccccc3)c3ccccc3)CC2)c2ccccc21 (stereo not shown) [Compound 148]", "UniProt:P30518", "%", 1),
    ("CCN(CC)CCn1c(=O)n(C2CCN(C(=S)NC(Cc3ccccc3)C(=O)OC)CC2)c2ccccc21 (stereo not shown) [Compound 42]", "UniProt:P30518", "%", 0),
    ("O=c1[nH]c2ccccc2n1C1CCN(C(=S)NCc2ccc3c(c2)OCO3)CC1 [Compound 16]", "UniProt:P30518", "%", 0),
    ("O=c1[nH]c2ccccc2n1C1CCN(C(=S)NC(c2ccccc2)c2ccccc2)CC1 [Compound 1]", "UniProt:P30518", "%", 38),
]

Now consider a different compound.
Enquiry: Given the compound O=c1n(CCCN2CCCCC2)c2ccccc2n1C1CCN(C(=S)NCCCc2ccccc2)CC1 [Compound 133] , what is its reported inhibition at 1 µM?
Return: 4
